Source: PubChem BioAssay

# EXPERIMENT NOTES: MELAS cybrid and Rieske KO viability enhancers – cell-based, MELAS cybrids, Rieske KO mouse fibroblasts, CellTiter-Glo, primary screen (AID 1508586);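 further: z relative to plate mean and SD of compound and empty wells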
# TEST CONDITIONS: Rieske KO mouse fibroblast survival, low glucose, CellTiter-Glo 72 h
Label scheme for z-score: lower than -0.2 is criterion not met, -0.2 and above is criterion met.

Hi, just wondering whether OC[C@H]1O[C@@H](Oc2ccc(O)cc2)[C@H](O)[C@@H](O)[C@@H]1O shows z-score of -0.2 or higher. criterion met

Hi, just wondering whether CCCCC(CC)CN1CN(CC(CC)CCCC)CC(C)(N)C1 (stereo not drawn) shows z-score of -0.2 or higher. criterion not met

Hi, just wondering whether O=C(O)P(=O)(O)O shows z-score of -0.2 or higher. criterion met

Hi, just wondering whether CCOc1cc(CC(=O)N[C@@H](CC(C)C)c2ccccc2N2CCCCC2)ccc1C(=O)O shows z-score of -0.2 or higher. criterion met

Hi, just wondering whether CC(=O)[C@@]1(O)CC[C@H]2[C@@H]3C[C@H](C)C4=CC(=O)C=C[C@]4(C)[C@@]3(F)[C@@H](O)C[C@@]21C shows z-score of -0.2 or higher. criterion met

Hi, just wondering whether O=c1c(-c2ccc(O)cc2)coc2cc(O)cc(O)c12 shows z-score of -0.2 or higher. criterion met

Hi, just wondering whether Cn1c(=O)c2c(ncn2C)n(C)c1=O shows z-score of -0.2 or higher. criterion not met

Hi, just wondering whether CCCCN(CCCC)CCCOC(=O)c1ccc(N)cc1 shows z-score of -0.2 or higher. criterion not met

====

# EXPERIMENT NOTES: reduced SW480 viability measured with CellTiter-Glo, NPC library, primary (AID 1117343)
# TEST CONDITIONS: CellTiter-Glo luminescence; at 20 µM (top of the series)
For each record, write down the corresponding viability decrease (inhibition).
The reply should contain only the number, in %.

What the record says about CCN(CC)CCOCCOC(=O)C1(c2ccccc2)CCCC1 : viability decrease (inhibition) is 20.6

What the record says about CN(C)CCCSc1ccccc1NC(=O)/C=C/c1ccccc1 : viability decrease (inhibition) is 5.3

What the record says about COC(=O)Nc1nc2ccc(C(=O)c3cccs3)cc2[nH]1 : viability decrease (inhibition) is 22.9

What the record says about CCN(CC)CCNC(=O)COc1ccc(OC)cc1 : viability decrease (inhibition) is 22.1

What the record says about CO[C@]12C[C@@H](COC(=O)c3cncc(Br)c3)CN(C)[C@@H]1Cc1cn(C)c3cccc2c13 : viability decrease (inhibition) is 76.9

What the record says about CN1CCOC(c2ccccc2)c2ccccc2C1 (stereo not drawn) : viability decrease (inhibition) is 40.1

What the record says about Cn1c(=O)c2c(ncn2C)n(C)c1=O : viability decrease (inhibition) is -11.7

What the record says about OCCOCCN1CCN(C2=Nc3ccccc3Sc3ccccc32)CC1 : viability decrease (inhibition) is 14

What the record says about CC[N+](C)(CC)CCOC(=O)C(O)(c1ccccc1)C1CCCCC1 (stereo not drawn) : viability decrease (inhibition) is 0.8

What the record says about COc1cc(/C=C/C(=O)CC(=O)/C=C/c2ccc(O)c(OC)c2)ccc1O : viability decrease (inhibition) is -4.1

What the record says about NCCS : viability decrease (inhibition) is -332

What the record says about O=C(NC(Cc1cc(=O)[nH]c2ccccc12)C(=O)O)c1ccc(Cl)cc1 (stereo not drawn) : viability decrease (inhibition) is 22.7

What the record says about CN(C)CCCN1c2ccccc2Sc2ccc(C(F)(F)F)cc21 : viability decrease (inhibition) is 137

What the record says about CN1CCN(C2=Nc3cc(F)ccc3Cc3ccccc32)CC1 : viability decrease (inhibition) is 26.9

What the record says about Cc1nc2ccc(CN(C)c3ccc(C(=O)N[C@@H](CCC(=O)O)C(=O)O)s3)cc2c(=O)[nH]1 : viability decrease (inhibition) is 117

What the record says about O=C(c1ccc(F)cc1)C1CCN(CCn2c(=O)[nH]c3ccccc3c2=O)CC1 : viability decrease (inhibition) is 19.5

What the record says about COc1cccc(OC)c1C(=O)N[C@@H]1C(=O)N2[C@@H]1SC(C)(C)[C@@H]2C(=O)O : viability decrease (inhibition) is 17.4

What the record says about CC(C)(Sc1cc(C(C)(C)C)c(O)c(C(C)(C)C)c1)Sc1cc(C(C)(C)C)c(O)c(C(C)(C)C)c1 : viability decrease (inhibition) is 9.4

What the record says about CC(=O)OCC(=O)[C@@]1(O)[C@H](C)C[C@H]2[C@@H]3CCC4=CC(=O)C=C[C@]4(C)[C@@]3(F)[C@@H](O)C[C@@]21C : viability decrease (inhibition) is 32.2

What the record says about O=C(CCNNC(=O)c1ccncc1)NCc1ccccc1 : viability decrease (inhibition) is 81.2

What the record says about COc1cc([C@H]2Oc3cc([C@H]4Oc5cc(O)cc(O)c5C(=O)[C@@H]4O)ccc3O[C@@H]2CO)ccc1O : viability decrease (inhibition) is 16.2

What the record says about COc1ccc2nc(S(=O)Cc3ncc(C)c(OC)c3C)[nH]c2c1 (stereo not drawn) : viability decrease (inhibition) is -451

What the record says about Cc1ccc(S(=O)(=O)NC(=O)NN2CC3CCCC3C2)cc1 (stereo not drawn) : viability decrease (inhibition) is 22.3

What the record says about CC(=O)OCC(=O)NCCCOc1cccc(CN2CCCCC2)c1 : viability decrease (inhibition) is 22.9

What the record says about C[C@@H]1CN(c2c(F)c(N)c3c(=O)c(C(=O)O)cn(C4CC4)c3c2F)C[C@H](C)N1 : viability decrease (inhibition) is -0.6

What the record says about CC(=O)Nc1ccc(S(=O)(=O)Nc2ccc([N+](=O)[O-])cc2)cc1 : viability decrease (inhibition) is 11.5

What the record says about CCN1CCC[C@H]1CNC(=O)c1c(O)c(Cl)cc(Cl)c1OC : viability decrease (inhibition) is -26.4

What the record says about COC(=O)N/N=C/c1c[n+]([O-])c2ccccc2[n+]1[O-] : viability decrease (inhibition) is -10.2

What the record says about O=C(O)c1cn(-c2ccc(F)cc2)c2cc(N3CCNCC3)c(F)cc2c1=O : viability decrease (inhibition) is -14.9

What the record says about CC(=O)Nc1ccccc1 : viability decrease (inhibition) is 25.2

What the record says about Nc1ccc(S(=O)(=O)Nc2nccs2)cc1 : viability decrease (inhibition) is 52.4

What the record says about Nc1ccc(O)c(C(=O)O)c1 : viability decrease (inhibition) is 22.9

What the record says about O=c1c(O)c(-c2ccc(O)c(O)c2)oc2cc(O)cc(O)c12 : viability decrease (inhibition) is 70.2
